Give Ranking, Binding data for every item shown.
tested on: T1, human LAG-3 expressed on cells (human, UniProt P18627 23-525)
T1 construct: whole, on cells; Treated as one protein; the host cell is named under assay; also called LAG-3-expressing CHO cells; LAG-3-transfected CHO cells
T1 sequence (looked up): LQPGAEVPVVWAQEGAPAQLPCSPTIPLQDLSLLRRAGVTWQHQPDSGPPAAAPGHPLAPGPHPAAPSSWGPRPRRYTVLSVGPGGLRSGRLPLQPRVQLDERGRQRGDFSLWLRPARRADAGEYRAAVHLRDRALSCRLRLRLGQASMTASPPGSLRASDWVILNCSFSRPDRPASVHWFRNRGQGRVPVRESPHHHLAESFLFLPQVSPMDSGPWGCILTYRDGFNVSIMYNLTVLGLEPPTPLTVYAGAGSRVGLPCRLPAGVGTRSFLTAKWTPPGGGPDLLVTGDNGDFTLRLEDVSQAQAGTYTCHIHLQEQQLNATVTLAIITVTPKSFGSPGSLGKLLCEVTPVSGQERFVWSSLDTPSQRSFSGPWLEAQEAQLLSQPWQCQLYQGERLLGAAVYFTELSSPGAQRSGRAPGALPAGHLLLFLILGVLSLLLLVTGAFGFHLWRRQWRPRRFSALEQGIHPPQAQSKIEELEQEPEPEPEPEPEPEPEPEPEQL
assay remarks: rank of the clone among the humanized clones by the FACS binding data on LAG-3-expressing cells
Enter a number only.

*Q* Quick one: Ranking, Binding data for BAP050-hum14 (antibody, human IgG4 S228P, kappa, V domains shown, humanized IgG4(S228P)/kappa, transient CHO supernatant) VH: EVQLVQSGAEVKKPGATVKISCKVSGFTLTNYGMNWIRQSPSRGLEWLGWINTDTGEPTYADDFKGRFVFSLDTSVSTAYLQICSLKAEDTAVYYCARNPPYYYGTNNAEAMDYWGQGTTVTVSS VL: EIVLTQSPATLPVTLGQPASISCSSSQDISNYLNWYQQKPGQAPRLLIYYTSTLHLGVPSRFSGSGSGTDFTFTISSLEAEDAATYYCQQYYNLPWTFGQGTKVEIKR ?
*A* 9

*Q* Give its Ranking, Binding data value. Item: BAP050-hum12 (antibody, human IgG4 S228P, kappa, V domains shown, humanized IgG4(S228P)/kappa, transient CHO supernatant; also called humanized clone No. 12) VH: QVQLVQSGAEVKKPGASVKVSCKASGFTLTNYGMNWVRQARGQRLEWIGWINTDTGEPTYADDFKGRFVFSLDTSVSTAYLQICSLKAEDTAVYYCARNPPYYYGTNNAEAMDYWGQGTTVTVSS VL: EIVLTQSPDFQSVTPKEKVTITCSSSQDISNYLNWYQQKPGQAPRLLIYYTSTLHLGVPSRFSGSGSGTDFTLTISSLQPEDFATYYCQQYYNLPWTFGQGTKVEIKR
*A* 3
